Origin of the recorded values: ChEMBL document CHEMBL1123948

molecular target: Dihydrofolate reductase (Lactobacillus casei, UniProt P00381); test: Inhibitory activity against dihydrofolate reductase in Lactobacillus casei was determined (glutamate residue 5); assay type: functional, Lacticaseibacillus casei
Sequence (P00381 whole entry): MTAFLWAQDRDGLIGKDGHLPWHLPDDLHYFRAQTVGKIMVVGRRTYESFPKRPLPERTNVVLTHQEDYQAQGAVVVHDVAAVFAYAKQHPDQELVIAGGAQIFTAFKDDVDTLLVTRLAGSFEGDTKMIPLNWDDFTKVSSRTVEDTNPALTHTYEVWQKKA
MEASUREMENT LABEL: IC50 (µM)
Unit µM implied. Number only.

Problem: Need IC50, item `Nc1nc(N)c2nc(CCc3ccc(C(=O)N[C@@H](CCC(=O)O)C(=O)O)cc3)cnc2n1`
Result: 0.021

* * *

tested on: Lacticaseibacillus casei; assay: Inhibitory activity against thymidylate synthase in Lactobacillus casei was determined (glutamate residue 6); assay type: functional, organism-based
Recorded pIC50, one value per entry.
To interpret pIC50, take it as minus log10 of a concentration measured in moles per litre.

CN(Cc1cnc2nc(N)nc(N)c2n1)c1ccc(C(=O)N[C@@H](CCC(=O)O)C(=O)O)cc1 [METHOTREXATE]: 6.55

Please look at the following molecule next.
Problem: Need pIC50, item `Nc1nc(N)c2nc(CCc3ccc(C(=O)N[C@@H](CCC(=O)O)C(=O)O)cc3)cnc2n1`
Result: 5.64

* * *

molecular target: Dihydrofolate reductase (Lactobacillus casei, UniProt P00381); test: Inhibitory activity against dihydrofolate reductase in Lactobacillus casei was determined (glutamate residue 3); assay type: functional, Lacticaseibacillus casei
MEASUREMENT LABEL: IC50 (nM)
Unit nM implied. Number only.

Problem: Need IC50, item `Nc1nc(N)c2nc(CCc3ccc(C(=O)N[C@@H](CCC(=O)O)C(=O)O)cc3)cnc2n1`
Result: 22

* * *

tested on: Lacticaseibacillus casei; experiment: Inhibitory activity against the growth of Lactobacillus casei (ATCC 7469) was determined (glutamate residue 6); type: functional, organism-based
MEASUREMENT LABEL: IC50 (nM)
Unit nM implied. Number only.

CN(Cc1cnc2nc(N)nc(N)c2n1)c1ccc(C(=O)N[C@@H](CCC(=O)O)C(=O)O)cc1 [METHOTREXATE]: 27

Please look at the following molecule next.
Problem: Need IC50, item `Nc1nc(N)c2nc(CCc3ccc(C(=O)N[C@@H](CCC(=O)O)C(=O)O)cc3)cnc2n1`
Result: 90

* * *

Recorded pIC50, one value per entry.
test system: Lacticaseibacillus casei; test: Inhibitory activity against thymidylate synthase in Lactobacillus casei was determined (glutamate residue 5); type: functional, organism-based
To interpret pIC50, take it as minus log10 of a concentration measured in moles per litre.

CN(Cc1cnc2nc(N)nc(N)c2n1)c1ccc(C(=O)N[C@@H](CCC(=O)O)C(=O)O)cc1 [METHOTREXATE]: 6.55
Nc1nc(N)c2nc(CCc3ccc(C(=O)N[C@@H](CCC(=O)O)C(=O)O)cc3)cnc2n1: 5.46

Please look at the following compound next.
Problem: Need pIC50, item CCC(Cc1cnc2nc(N)nc(N)c2n1)c1ccc(C(=O)N[C@@H](CCC(=O)O)C(=O)O)cc1 (stereo partly drawn) [EDATREXATE]
Result: 5.13

* * *

test system: Lacticaseibacillus casei; assay: Inhibitory activity against thymidylate synthase in Lactobacillus casei was determined (glutamate residue 2); assay type: functional, organism-based
Recorded IC50, one value per entry.
Unit µM implied. Number only.

Problem: Need IC50, item `Nc1nc(N)c2nc(CCc3ccc(C(=O)N[C@@H](CCC(=O)O)C(=O)O)cc3)cnc2n1`
Result: 88

Problem: Need IC50, item CN(Cc1cnc2nc(N)nc(N)c2n1)c1ccc(C(=O)N[C@@H](CCC(=O)O)C(=O)O)cc1 [METHOTREXATE]
Result: 6

Problem: Need IC50, item CCC(Cc1cnc2nc(N)nc(N)c2n1)c1ccc(C(=O)N[C@@H](CCC(=O)O)C(=O)O)cc1 (stereo partly drawn) [EDATREXATE]
Result: 170

* * *

biological target: Dihydrofolate reductase (Lactobacillus casei, UniProt P00381); experiment: Inhibitory activity against dihydrofolate reductase in Lactobacillus casei was determined (glutamate residue 6); format: functional, Lacticaseibacillus casei
MEASUREMENT LABEL: pIC50
To interpret pIC50, take it as minus log10 of a concentration measured in moles per litre.

Problem: Need pIC50, item `Nc1nc(N)c2nc(CCc3ccc(C(=O)N[C@@H](CCC(=O)O)C(=O)O)cc3)cnc2n1`
Result: 7.47

* * *

test system: Lacticaseibacillus casei; test: Inhibitory activity against the growth of Lactobacillus casei (ATCC 7469) was determined (glutamate residue 5); type: functional, organism-based
Recorded pIC50, one value per entry.
To interpret pIC50, take it as minus log10 of a concentration measured in moles per litre.

# annotated cases, reported pIC50 shown
Nc1nc(N)c2nc(CCc3ccc(C(=O)N[C@@H](CCC(=O)O)C(=O)O)cc3)cnc2n1: 7.85
CCC(Cc1cnc2nc(N)nc(N)c2n1)c1ccc(C(=O)N[C@@H](CCC(=O)O)C(=O)O)cc1 (stereo partly drawn) [EDATREXATE]: 7.05

Please look at the following compound next.
Problem: Need pIC50, item CN(Cc1cnc2nc(N)nc(N)c2n1)c1ccc(C(=O)N[C@@H](CCC(=O)O)C(=O)O)cc1 [METHOTREXATE]
Result: 8.66

* * *

tested on: Lacticaseibacillus casei; assay: Inhibitory activity against thymidylate synthase in Lactobacillus casei was determined (glutamate residue 1); format: functional, organism-based
MEASUREMENT LABEL: IC50

# annotated cases, reported IC50 shown
CN(Cc1cnc2nc(N)nc(N)c2n1)c1ccc(C(=O)N[C@@H](CCC(=O)O)C(=O)O)cc1 [METHOTREXATE]: 100 µM
CCC(Cc1cnc2nc(N)nc(N)c2n1)c1ccc(C(=O)N[C@@H](CCC(=O)O)C(=O)O)cc1 (stereo partly drawn) [EDATREXATE]: > 300 µM

Please look at the following compound next.
Problem: Need IC50, item `Nc1nc(N)c2nc(CCc3ccc(C(=O)N[C@@H](CCC(=O)O)C(=O)O)cc3)cnc2n1`
Result: > 300 µM
